Tested on: Human alphaherpesvirus 1
Test: Antiviral activity against Herpes simplex virus 1 at 10 uM
Type: functional, organism-based
Calls of active or inactive are those of the source. The calls are words filed in the database; no cut-off is given here.
QUANTITY: Activity

A selection of reference data follows.
molecule=COc1cccc2[nH]cc(CC#N)c12 result=inactive
molecule=O=C1Nc2ccccc2/C1=C1/Nc2ccccc2C1=O result=inactive
molecule=Nc1ccccc1C(=O)O[C@@H]1O[C@H](CO)[C@@H](O)[C@H](O)[C@H]1O result=inactive
molecule="COc1ccc(C(C#N)c2c[nH]c3ccccc23)c2[nH]cc(CC#N)c12 (single isomer, unassigned)" result=inactive
molecule=COc1cccc2c1[C@@](O)(CC(N)=O)C(=O)N2 result=inactive

// Activity lookup, key: NC(=O)[C@@H]1CC(=O)Nc2ccccc21
inactive
